# experimental details: Spectra of Ni-dye complexes in solution
# Assay type: physicochemical
# condition label: 3:1 dioxane:water, pH 7, excess nickel ion; half band width
result type: Solution HBW of Ni-dye complex (nm)
Give bare numbers, in nm.

Consider the worked cases shown below.
>>> df
                                smiles_code                     result_type  numeric_value
0  CN(c1cccc(O)c1)S(=O)(=O)c1cnc(N=Nc2ccc(O)c3cccnc23)c(Cl)c1  Solution HBW of Ni-dye complex             68
1  CC(C)NS(=O)(=O)c1cnc(N=Nc2ccc(O)c3cc(C(=O)Nc4cccc(O)c4)c(Cl)nc23)c(Cl)c1  Solution HBW of Ni-dye complex             63
2  O=S(=O)(Nc1ccccc1)c1cnc(N=Nc2ccc(O)c3cccnc23)c(Cl)c1  Solution HBW of Ni-dye complex             65
3  NS(=O)(=O)c1cccc(NS(=O)(=O)c2cnc(N=Nc3ccc(O)c4cccnc34)c(Cl)c2)c1  Solution HBW of Ni-dye complex             70
4  COc1cc(S(=O)(=O)Nc2cccc(O)c2)cnc1N=Nc1ccc(O)c2cccnc12  Solution HBW of Ni-dye complex             78

# batch: return Solution HBW of Ni-dye complex for each of the 2 compounds below
1. NS(=O)(=O)c1cnc(N=Nc2ccc(O)c3cccnc23)c(Cl)c1
2. COc1cc(S(=O)(=O)NC(C)(C)C)cnc1N=Nc1ccc(O)c2cccnc12

Response:
[65, 79]

# batch: return Solution HBW of Ni-dye complex for each of the 2 compounds below
1. CC(C)NS(=O)(=O)c1cnc(N=Nc2ccc(O)c3cccnc23)c(Cl)c1
2. O=S(=O)(Nc1cccc(O)c1)c1cnc(N=Nc2ccc(O)c3cccnc23)c(Cl)c1

Response:
68
65
